This collection of values is drawn from patent US4006204A.

target: prostaglandin synthetase (Bos taurus); construct: enzyme source was bovine; from tissue; host or cells: bovine seminal vesicles; test: Prostaglandin synthetase inhibition (procedure of Flower et al.); format: biochemical, bovine; conditions: enzyme source bovine seminal vesicles; read-out: ID50 vs Prostaglandin E2 (prostaglandin synthetase inhibition)
pIC50: −log10 of the molar value.
Measured quantity: pIC50

GET /value?item= CC(C(=O)O)c1ccc(C2CCCCC2)c(Cl)c1 (stereo not shown) &field=pIC50 returns 5.40 to 5.70

###

Target: prostaglandin synthetase (Bos taurus)
Construct: enzyme source was bovine; from tissue; host or cells: bovine seminal vesicles
Sequence (O62664 25-600): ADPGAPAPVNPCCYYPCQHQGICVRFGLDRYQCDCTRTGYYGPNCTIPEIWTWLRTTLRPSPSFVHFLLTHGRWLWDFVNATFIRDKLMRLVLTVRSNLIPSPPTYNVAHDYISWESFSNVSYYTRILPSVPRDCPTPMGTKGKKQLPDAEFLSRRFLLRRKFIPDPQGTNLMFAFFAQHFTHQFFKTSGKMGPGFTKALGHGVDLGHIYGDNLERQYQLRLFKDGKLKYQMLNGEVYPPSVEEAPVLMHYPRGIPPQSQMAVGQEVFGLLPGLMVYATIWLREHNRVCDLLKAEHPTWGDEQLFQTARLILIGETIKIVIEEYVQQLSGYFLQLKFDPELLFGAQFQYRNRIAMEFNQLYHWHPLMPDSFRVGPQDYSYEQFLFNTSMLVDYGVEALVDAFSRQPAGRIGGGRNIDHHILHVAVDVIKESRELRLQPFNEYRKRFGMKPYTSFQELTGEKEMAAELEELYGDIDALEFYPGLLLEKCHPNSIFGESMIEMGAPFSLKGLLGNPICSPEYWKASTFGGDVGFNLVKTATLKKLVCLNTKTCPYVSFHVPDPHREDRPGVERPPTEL
Experiment: Prostaglandin synthetase inhibition (procedure of Flower et al.)
Format: biochemical, bovine
Measured quantity: IC50 (µM)
// return numeric value only (unit: µM, not printed)

{"Compound": "CC(OP(=O)(O)Oc1ccccc1)c1ccc(C2CCCCC2)c(Cl)c1 (centres unmarked) [Compound 1]", "Measured number": 18}

Please find the next compound below.
The compound CC(COP(=O)(O)Oc1ccccc1)c1ccc(C2CCCCC2)c(Cl)c1 (centres unmarked) [Compound 2] , tested on prostaglandin synthetase (Bos taurus), showed IC50 of 50
